// data source = ChEMBL document CHEMBL1155169

Test: Half life in morbidly obese human at 461 mg infused over 30 mins
Assay type: ADME, organism-based
Details: in vivo, iv
parameter.measured: half-life (h)
Use h as the unit, but write only the number.

// query Need half-life, item `CCCCCCCCCC(=O)N[C@@H](Cc1c[nH]c2ccccc12)C(=O)N[C@H](CC(N)=O)C(=O)N[C@@H](CC(=O)O)C(=O)N[C@@H]1C(=O)NCC(=O)N[C@@H](CCCN)C(=O)N[C@@H](CC(=O)O)C(=O)N[C@H](C)C(=O)N[C@@H](CC(=O)O)C(=O)NCC(=O)N[C@H](CO)C(=O)N[C@@H]([C@H](C)CC(=O)O)C(=O)N[C@@H](CC(=O)c2ccccc2N)C(=O)O[C@@H]1C`
// result 8.68

* * *

Test: Half life in normal weight human at 236 mg infused over 30 mins
Type: ADME, organism-based
Settings: in vivo, iv
parameter.measured: half-life

// query Need half-life, item `CCCCCCCCCC(=O)N[C@@H](Cc1c[nH]c2ccccc12)C(=O)N[C@H](CC(N)=O)C(=O)N[C@@H](CC(=O)O)C(=O)N[C@@H]1C(=O)NCC(=O)N[C@@H](CCCN)C(=O)N[C@@H](CC(=O)O)C(=O)N[C@H](C)C(=O)N[C@@H](CC(=O)O)C(=O)NCC(=O)N[C@H](CO)C(=O)N[C@@H]([C@H](C)CC(=O)O)C(=O)N[C@@H](CC(=O)c2ccccc2N)C(=O)O[C@@H]1C`
// result 7.72 h

* * *

Test: Cmin in normal weight human at 236 mg infused over 30 mins after 24 hrs
Format: ADME, organism-based
Conditions: in vivo, iv, read-out: Cmin
parameter.measured: concentration at 24 h

// query Need concentration at 24 h, item `CCCCCCCCCC(=O)N[C@@H](Cc1c[nH]c2ccccc12)C(=O)N[C@H](CC(N)=O)C(=O)N[C@@H](CC(=O)O)C(=O)N[C@@H]1C(=O)NCC(=O)N[C@@H](CCCN)C(=O)N[C@@H](CC(=O)O)C(=O)N[C@H](C)C(=O)N[C@@H](CC(=O)O)C(=O)NCC(=O)N[C@H](CO)C(=O)N[C@@H]([C@H](C)CC(=O)O)C(=O)N[C@@H](CC(=O)c2ccccc2N)C(=O)O[C@@H]1C`
// result 3390 ng/mL

* * *

Assay: Renal clearance per kg of ideal body weight in normal weight human at 236 mg infused over 30 mins
Format: ADME, organism-based, Kidney
Settings: in vivo, iv, read-out: CL_renal (converted)
parameter.measured: CL renal at 0.5 h (mL/min)
Use mL/min as the unit, but write only the number.

// query Need CL renal at 0.5 h, item `CCCCCCCCCC(=O)N[C@@H](Cc1c[nH]c2ccccc12)C(=O)N[C@H](CC(N)=O)C(=O)N[C@@H](CC(=O)O)C(=O)N[C@@H]1C(=O)NCC(=O)N[C@@H](CCCN)C(=O)N[C@@H](CC(=O)O)C(=O)N[C@H](C)C(=O)N[C@@H](CC(=O)O)C(=O)NCC(=O)N[C@H](CO)C(=O)N[C@@H]([C@H](C)CC(=O)O)C(=O)N[C@@H](CC(=O)c2ccccc2N)C(=O)O[C@@H]1C`
// result 0.165

* * *

Test: Cmax in morbidly obese human at 461 mg infused over 30 mins
Assay type: ADME, organism-based
Set-up: dose 461 mg
Conditions: in vivo, iv
parameter.measured: Cmax (µg/mL)
Use µg/mL as the unit, but write only the number.

// query Need Cmax, item `CCCCCCCCCC(=O)N[C@@H](Cc1c[nH]c2ccccc12)C(=O)N[C@H](CC(N)=O)C(=O)N[C@@H](CC(=O)O)C(=O)N[C@@H]1C(=O)NCC(=O)N[C@@H](CCCN)C(=O)N[C@@H](CC(=O)O)C(=O)N[C@H](C)C(=O)N[C@@H](CC(=O)O)C(=O)NCC(=O)N[C@H](CO)C(=O)N[C@@H]([C@H](C)CC(=O)O)C(=O)N[C@@H](CC(=O)c2ccccc2N)C(=O)O[C@@H]1C`
// result 67.3
